biological target: Histone deacetylase 1 (Homo sapiens, UniProt Q13547); assay: Inhibition of human recombinant full length HDAC1 using (Ac)-Lys-Tyr-Lys(-acetyl)-AMC substrate after 30 mins
Sequence (Q13547 whole entry): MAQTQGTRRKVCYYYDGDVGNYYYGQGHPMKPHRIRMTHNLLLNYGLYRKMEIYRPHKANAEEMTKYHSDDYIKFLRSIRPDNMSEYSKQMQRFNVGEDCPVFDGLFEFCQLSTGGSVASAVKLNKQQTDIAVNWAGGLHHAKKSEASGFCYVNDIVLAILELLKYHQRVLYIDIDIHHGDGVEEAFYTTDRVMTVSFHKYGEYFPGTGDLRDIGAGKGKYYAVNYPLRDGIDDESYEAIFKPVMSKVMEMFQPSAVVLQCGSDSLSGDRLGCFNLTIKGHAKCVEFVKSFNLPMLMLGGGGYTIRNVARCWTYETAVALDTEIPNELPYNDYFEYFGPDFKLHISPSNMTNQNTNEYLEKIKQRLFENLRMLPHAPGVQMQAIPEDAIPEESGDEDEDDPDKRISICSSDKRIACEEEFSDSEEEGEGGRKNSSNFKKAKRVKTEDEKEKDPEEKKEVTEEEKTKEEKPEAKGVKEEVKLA
pIC50: −log10 of the molar value.
Each entry gets -1 if its pIC50 stays under 8, and 1 if its pIC50 is 8 or above.

Inquiry: Item O=C(CCCCCCC(=O)Nc1cc2c(Cl)ncnc2s1)NO with pIC50 of 8 or above?
Reply text: -1

Inquiry: Item CN(C)c1ccc(Nc2ncnc3sc(NC(=O)CCCCCCC(=O)NO)cc23)cc1F with pIC50 of 8 or above?
Reply text: 1

Inquiry: Item O=C(CCCCC(=O)Nc1cc2c(Nc3ccc(Cl)c(C(F)(F)F)c3)ncnc2s1)NO with pIC50 of 8 or above?
Reply text: -1

Inquiry: Item O=C(CCCCCC(=O)Nc1cc2c(Nc3ccc(F)c(Cl)c3)ncnc2s1)NO with pIC50 of 8 or above?
Reply text: -1

Inquiry: Item O=C(CCCCCCC(=O)Nc1cc2c(Nc3cccc(Cl)c3)ncnc2s1)NO with pIC50 of 8 or above?
Reply text: 1

Inquiry: Item Cc1ccc(Nc2ncnc3sc(NC(=O)CCCCCCC(=O)NO)cc23)cc1C with pIC50 of 8 or above?
Reply text: 1

Inquiry: Item O=C(CCCCCCC(=O)Nc1cc2c(Nc3ccc(Cl)c(C(F)(F)F)c3)ncnc2s1)NO with pIC50 of 8 or above?
Reply text: -1

====

target: Histone deacetylase 1 (Homo sapiens, UniProt Q13547); assay: Inhibition of human recombinant full length HDAC1 using (Ac)-Lys-Tyr-Lys(-acetyl)-AMC substrate after 30 mins
Hi there, I'd appreciate the recorded IC50 for every entry that follows.
Just the number in µM, nothing appended.

Inquiry: Consider the molecule CCN(CC)c1ccc(Nc2ncnc3sc(NC(=O)CCCCCCC(=O)NO)cc23)cc1 . State its measured IC50.
Reply text: 0.0329

Inquiry: Consider the molecule O=C(CCCCCC(=O)Nc1cc2c(Nc3ccc(Cl)c(C(F)(F)F)c3)ncnc2s1)NO . State its measured IC50.
Reply text: 0.0408

Inquiry: Consider the molecule O=C(CCCCC(=O)Nc1cc2c(Nc3ccc(F)c(Cl)c3)ncnc2s1)NO . State its measured IC50.
Reply text: 0.131

Inquiry: Consider the molecule O=C(CCCCCCC(=O)Nc1cc2c(Nc3ccc(N4CCCCC4)c(F)c3)ncnc2s1)NO . State its measured IC50.
Reply text: 0.00539

Inquiry: Consider the molecule Cc1ccc(Nc2ncnc3sc(NC(=O)CCCCCCC(=O)NO)cc23)cc1 . State its measured IC50.
Reply text: 0.00201

Inquiry: Consider the molecule O=C(CCCCCCC(=O)Nc1cc2c(Nc3ccccc3)ncnc2s1)NO . State its measured IC50.
Reply text: 0.0019

Inquiry: Consider the molecule Cc1ccc(Nc2ncnc3sc(NC(=O)CCCCCC(=O)NO)cc23)cc1 . State its measured IC50.
Reply text: 0.014

Inquiry: Consider the molecule O=C(CCCCCCC(=O)Nc1cc2c(Nc3ccc(O[C@H]4CCOC4)c(Cl)c3)ncnc2s1)NO . State its measured IC50.
Reply text: 0.00297

Inquiry: Consider the molecule O=C(CCCCCCC(=O)Nc1cc2c(Nc3ccc(N4CCCC4)cc3)ncnc2s1)NO . State its measured IC50.
Reply text: 0.0139

Inquiry: Consider the molecule O=C(CCCCCCC(=O)Nc1cc2c(Nc3ccc(Cl)cc3F)ncnc2s1)NO . State its measured IC50.
Reply text: 0.0125

====

Target: Protein deacetylase HDAC6 (Homo sapiens)
Sequence (Q9UBN7 whole entry): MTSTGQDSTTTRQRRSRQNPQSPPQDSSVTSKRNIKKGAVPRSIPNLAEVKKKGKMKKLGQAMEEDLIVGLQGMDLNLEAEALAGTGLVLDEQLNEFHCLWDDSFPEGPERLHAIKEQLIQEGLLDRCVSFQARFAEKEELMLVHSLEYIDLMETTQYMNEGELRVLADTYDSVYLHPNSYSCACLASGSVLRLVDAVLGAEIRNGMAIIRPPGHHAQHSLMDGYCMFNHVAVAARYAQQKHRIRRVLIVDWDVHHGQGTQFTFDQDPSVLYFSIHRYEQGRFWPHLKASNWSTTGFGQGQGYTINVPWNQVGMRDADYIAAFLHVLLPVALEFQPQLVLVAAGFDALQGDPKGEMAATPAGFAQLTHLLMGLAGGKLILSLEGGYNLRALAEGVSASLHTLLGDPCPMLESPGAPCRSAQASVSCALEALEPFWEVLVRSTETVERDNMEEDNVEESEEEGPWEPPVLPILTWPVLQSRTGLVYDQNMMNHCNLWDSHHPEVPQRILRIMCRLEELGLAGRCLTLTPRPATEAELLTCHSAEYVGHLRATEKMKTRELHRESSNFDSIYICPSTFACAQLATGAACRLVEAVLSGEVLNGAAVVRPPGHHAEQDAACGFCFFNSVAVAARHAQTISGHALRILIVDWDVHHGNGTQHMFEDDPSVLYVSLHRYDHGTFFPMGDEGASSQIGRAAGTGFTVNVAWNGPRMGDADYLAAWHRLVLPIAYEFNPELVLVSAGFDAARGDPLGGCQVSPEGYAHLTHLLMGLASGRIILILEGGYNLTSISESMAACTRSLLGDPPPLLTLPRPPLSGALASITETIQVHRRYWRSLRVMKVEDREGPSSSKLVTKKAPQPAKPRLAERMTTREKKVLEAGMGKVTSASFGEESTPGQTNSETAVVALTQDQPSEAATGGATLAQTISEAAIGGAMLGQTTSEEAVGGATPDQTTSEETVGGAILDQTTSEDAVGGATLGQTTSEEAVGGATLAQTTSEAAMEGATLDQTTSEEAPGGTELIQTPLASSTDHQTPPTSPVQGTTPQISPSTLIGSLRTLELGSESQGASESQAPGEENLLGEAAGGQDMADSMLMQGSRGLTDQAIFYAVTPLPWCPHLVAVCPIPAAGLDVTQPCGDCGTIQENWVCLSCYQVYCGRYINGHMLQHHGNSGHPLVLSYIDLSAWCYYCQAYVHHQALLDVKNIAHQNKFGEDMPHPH
Assay: Inhibition of human recombinant full length HDAC6 using (Boc-Lys (-acetyl)-AMC substrate after 30 mins
pIC50: −log10 of the molar value.
Each entry gets Not fulfilled if its pIC50 stays under 8, and Fulfilled if its pIC50 is 8 or above.

Inquiry: Item O=C(CCCCCC(=O)Nc1cc2c(Nc3ccccc3)ncnc2s1)NO with pIC50 of 8 or above?
Reply text: Not fulfilled

Inquiry: Item Cc1ccc(Nc2ncnc3sc(NC(=O)CCCCCCC(=O)NO)cc23)cc1 with pIC50 of 8 or above?
Reply text: Fulfilled

Inquiry: Item O=C(CCCCCCC(=O)Nc1cc2c(Nc3ccc(F)c(Cl)c3)ncnc2s1)NO with pIC50 of 8 or above?
Reply text: Not fulfilled

Inquiry: Item CCN(CC)c1ccc(Nc2ncnc3sc(NC(=O)CCCCCCC(=O)NO)cc23)cc1 with pIC50 of 8 or above?
Reply text: Not fulfilled

Inquiry: Item O=C(CCCCC(=O)Nc1cc2c(Nc3ccc(F)c(Cl)c3)ncnc2s1)NO with pIC50 of 8 or above?
Reply text: Not fulfilled

Inquiry: Item CN(C)c1ccc(Nc2ncnc3sc(NC(=O)CCCCCCC(=O)NO)cc23)cc1F with pIC50 of 8 or above?
Reply text: Fulfilled

Inquiry: Item O=C(CCCCCC(=O)Nc1cc2c(Nc3ccc(F)c(Cl)c3)ncnc2s1)NO with pIC50 of 8 or above?
Reply text: Not fulfilled

Inquiry: Item O=C(CCCCCCC(=O)Nc1cc2c(Nc3ccc(O[C@H]4CCOC4)c(Cl)c3)ncnc2s1)NO with pIC50 of 8 or above?
Reply text: Fulfilled

Inquiry: Item O=C(CCCCCC(=O)Nc1cc2c(Nc3ccc(Cl)c(C(F)(F)F)c3)ncnc2s1)NO with pIC50 of 8 or above?
Reply text: Not fulfilled

====

Hi there, I'd appreciate the recorded pIC50 for every entry that follows.
target: Protein deacetylase HDAC6 (Homo sapiens); experiment: Inhibition of human recombinant full length HDAC6 using (Boc-Lys (-acetyl)-AMC substrate after 30 mins
// pIC50 here means minus log10 of the molar concentration (mol/L)

Inquiry: Tell me pIC50 of O=C(CCCCCCC(=O)Nc1cc2c(Nc3ccc(Cl)cc3F)ncnc2s1)NO when tested on Protein deacetylase HDAC6 (Homo sapiens).
Reply text: 8.25

Inquiry: Tell me pIC50 of O=C(CCCCCCC(=O)Nc1cc2c(Nc3ccc(N4CCCCC4)c(F)c3)ncnc2s1)NO when tested on Protein deacetylase HDAC6 (Homo sapiens).
Reply text: 8.47

Inquiry: Tell me pIC50 of CCN(CC)c1ccc(Nc2ncnc3sc(NC(=O)CCCCCCC(=O)NO)cc23)cc1F when tested on Protein deacetylase HDAC6 (Homo sapiens).
Reply text: 8.46

Inquiry: Tell me pIC50 of Cc1ccc(Nc2ncnc3sc(NC(=O)CCCCCC(=O)NO)cc23)cc1 when tested on Protein deacetylase HDAC6 (Homo sapiens).
Reply text: 7.71
